IC50 data for UniProtKB P00749 follow.
PROPERTY LABEL: IC50 (µM)

INSERT INTO assay_data (compound, property_label, qualifier, data_value) VALUES
  ('COC(=O)c1ccn2c(NCc3ccc(NC(=N)N)cc3)c(-c3cccnc3)nc2c1', 'IC50', '=', 15),
  ('N=C(N)Nc1ccc(CNc2c(-c3ccc(F)cc3)nc3ccccn23)cc1', 'IC50', '=', 125),
  ('N=C(N)Nc1ccc(CNc2c(-c3cccnc3)nc3ccc(C(N)=O)cn23)cc1', 'IC50', '=', 27.3),
  ('CN1CCN(CCNC(=O)c2ccn3c(NCc4ccc(NC(=N)N)cc4)cnc3c2)CC1', 'IC50', '=', 0.404),
  ('Cc1ccc2nc(-c3cccnc3)c(NCc3ccc(NC(=N)N)cc3)n2c1', 'IC50', '=', 23.9),
  ('CCCCNC(=O)c1ccn2c(NCc3ccc(NC(=N)N)cc3)c(-c3cccnc3)nc2c1', 'IC50', '=', 6.89),
  ('CCc1nc2ccccn2c1NCc1ccc(NC(=N)N)cc1', 'IC50', '=', 48.5),
  ('N=C(N)Nc1ccc(CNc2cnc3cc(C(=O)NCCO)ccn23)cc1', 'IC50', '=', 0.366),
  ('N=C(N)Nc1ccc(CNc2c(-c3cccnc3)nc3ccccn23)cc1', 'IC50', '=', 250),
  ('N=C(N)Nc1ccc(CNc2cnc3cc(C(=O)NCc4ccc(F)cc4)ccn23)cc1', 'IC50', '=', 0.254),
  ('NCc1ccc(Nc2cnc3ccccn23)cc1', 'IC50', '>', 500),
  ('CCOC(=O)c1ccc(OC(=O)CCCCCNC(=N)N)cc1 [GABEXATE]', 'IC50', '=', 0.431),
  ('CCc1ccc(-c2nc3ccccn3c2NCc2ccc(NC(=N)N)cc2)cc1', 'IC50', '=', 63.9),
  ('N=C(N)Nc1ccc(CNc2c(-c3ccccc3)nc3ccccn23)cc1', 'IC50', '=', 30.1),
  ('Cc1cccn2c(NCc3ccc(NC(=N)N)cc3)c(-c3cccnc3)nc12', 'IC50', '=', 27.4),
  ('N=C(N)NCCCCNc1cnc2ccccn12', 'IC50', '=', 200);
